// %Inh lookup, one value per entry
Test system: EPHB4
condition: concentration: 1 μM, replicates: in singlicate; n = 1;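 note: KINOMEscan kinase panel screen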
Field: numeric (%). Do not append units.

{"compound": "COc1ccc(-c2oc3ncnc(N)c3c2-c2ccc(OC)cc2)cc1 [SB-589132]", "assayed system": "EPHB4", "%Inh, %": 5}
{"compound": "O=C(Nc1ccccc1F)NC1CCN(c2ccnc(Nc3ccc(F)cc3)n2)C1 (stereo not drawn) [GSK1379722]", "assayed system": "EPHB4", "%Inh, %": 0}
{"compound": "c1ccc(-c2ccc3c(-c4ccnc(Nc5ccc6c(c5)OCCO6)n4)cnn3n2)cc1 [GW818941]", "assayed system": "EPHB4", "%Inh, %": 10}
{"compound": "CCC(CC)(CC)n1cnc2c(N)ncnc21 [SKF-97620]", "assayed system": "EPHB4", "%Inh, %": 0}

Let us move to another entry and its %Inh.
Task: Report %Inh for Clc1cccc(-c2nc(Nc3ccncc3)c3ccccc3n2)c1 [GW873004] please.
Result: 45

---

System: AKT1
condition: concentration: 1 μM, replicates: in singlicate; n = 1
// %Inh lookup, one value per entry

{"test smiles": "CS(=O)(=O)CCNCc1nc(-c2ccc3ncnc(Nc4ccc(OCc5cccc(F)c5)c(Cl)c4)c3c2)cs1.Cl", "assayed system": "AKT1", "%Inh": "0%"}
{"test smiles": "Cn1cc(-c2ccc3c(c2)CCN3C(=O)Cc2cccc(C(F)(F)F)c2)c2c(N)ncnc21", "assayed system": "AKT1", "%Inh": "0%"}
{"test smiles": "O=C(c1ccc(-c2cc(-c3c[nH]nc3-c3ccccn3)ccn2)cc1)N1CCCC1", "assayed system": "AKT1", "%Inh": "2%"}
{"test smiles": "Nc1nc(-c2ccc3c(N)n[nH]c3c2)cc(N2CCCCC2)n1", "assayed system": "AKT1", "%Inh": "0%"}

Let us move to another entry and its %Inh.
Task: Test system AKT1; read-out %Inh; what value for CN1c2ccc(-c3ccc(C(=O)NCCO)cc3)cc2-c2[nH]ncc2S1(=O)=O ?
Result: 11%

---

System: SYK
condition: concentration: 1 μM, replicates: in singlicate; n = 1
readout kind: %Inh (%)
Field: numeric (%). Do not append units.

{"test smiles": "COC(=O)c1cccc(NC(=O)NCCNc2ccnc(Nc3ccc(F)cc3)n2)c1", "%Inh / %": 5}
{"test smiles": "NC(=O)c1sc(-n2cnc3ccccc32)cc1OCc1ccccc1F", "%Inh / %": 7}
{"test smiles": "FC(F)(F)c1ccc(-c2nn3ncccc3c2-c2ccnc(Nc3cccc(C(F)(F)F)c3)n2)cc1", "%Inh / %": 20}
{"test smiles": "Fc1cccc(COc2ccc(Nc3ncnc4sc(-c5ccc[nH]5)cc34)cc2Cl)c1", "%Inh / %": 13}
{"test smiles": "FC(F)(F)c1ccc(-c2cc(-c3c[nH]nc3-c3ccccn3)ccn2)cc1", "%Inh / %": 44}

Task: Report %Inh for Nc1nc(-c2ccc3c(N)n[nH]c3c2)cc(N2CCC[C@@H](C(=O)Nc3ccccc3)C2)n1.O=C(O)C(F)(F)F.O=C(O)C(F)(F)F please.
Result: 0

Task: Next entry: CNc1nccc(-c2c(-c3ccc(F)cc3)ncn2CCCN2CCOCC2)n1
Result: 0

---

Tested on: RSK3(Kin.Dom.1-N-terminal)
Construct: gene RPS6KA2
condition: concentration: 1 μM, replicates: in singlicate; n = 1
readout kind: %Inh (%)
Field: numeric (%). Do not append units.

Below, 4 molecules whose answers are already recorded.
{"molecule": "Oc1ccc2ncnc(Nc3ccc(OCc4ccccc4)cc3)c2c1 [GI262866]", "assayed system": "RSK3(Kin.Dom.1-N-terminal)", "data value": 5}
{"molecule": "O=C(Nc1n[nH]c2nc(-c3ccco3)c(Br)cc12)c1ccc(CN2CCCC2)cc1.O=C(O)[C@H](O)[C@@H](O)C(=O)O [SB-742352]", "assayed system": "RSK3(Kin.Dom.1-N-terminal)", "data value": 0}
{"molecule": "Cc1ccc(O)cc1Nc1cc(C(F)(F)F)nc2ccc(-c3ccncc3)cc12 [GW630823]", "assayed system": "RSK3(Kin.Dom.1-N-terminal)", "data value": 0}
{"molecule": "Nc1nc(-c2ccc3c(N)n[nH]c3c2)cc(N2CCCCC2)n1 [GSK2228768]", "assayed system": "RSK3(Kin.Dom.1-N-terminal)", "data value": 15}

Let us move to another entry and its %Inh.
Task: Test system RSK3(Kin.Dom.1-N-terminal); read-out %Inh; what value for Cl.c1ccc(Cn2ccc3cc(Nc4ncnc5ccccc45)ccc32)cc1 [GW275568] ?
Result: 2

---

System: RSK4(Kin.Dom.2-C-terminal)
Construct: gene RPS6KA6
condition: concentration: 1 μM, replicates: in singlicate; n = 1
I would appreciate it if you labelled entries 1.0 when %Inh is 20% or higher, otherwise 0.0.

{"test smiles": "O=C(c1ccc(-c2cc(-c3c[nH]nc3-c3ccccn3)ccn2)cc1)N1CCCC1", "assayed system": "RSK4(Kin.Dom.2-C-terminal)", "category": 0.0}
{"test smiles": "CNc1nccc(-c2c(-c3ccc(F)cc3)ncn2C2CCN(C)CC2)n1", "assayed system": "RSK4(Kin.Dom.2-C-terminal)", "category": 1.0}
{"test smiles": "COc1cc2c(Nc3cccc(NC(=O)c4ccccc4)c3)ncnc2cc1OCCCN1CCOCC1", "assayed system": "RSK4(Kin.Dom.2-C-terminal)", "category": 0.0}
{"test smiles": "CCc1nc(-c2cccc(C)c2)c(-c2ccnc(NC(=O)c3ccccc3)c2)s1", "assayed system": "RSK4(Kin.Dom.2-C-terminal)", "category": 1.0}
{"test smiles": "CC(C)N1CCC(n2cnc(-c3ccc(F)cc3)c2-c2ccnc(N)n2)CC1", "assayed system": "RSK4(Kin.Dom.2-C-terminal)", "category": 1.0}
{"test smiles": "O=C(CCO)NCCn1ccc2ncnc(Nc3ccc(Oc4cccc(C(F)(F)F)c4)c(Cl)c3)c21", "assayed system": "RSK4(Kin.Dom.2-C-terminal)", "category": 0.0}
{"test smiles": "Fc1cccc(COc2ccc(Nc3ncnc4nn5ccccc5c34)cc2Cl)c1", "assayed system": "RSK4(Kin.Dom.2-C-terminal)", "category": 0.0}
{"test smiles": "Fc1cccc(COc2ccc(Nc3ncnc4cc[nH]c34)cc2Cl)c1", "assayed system": "RSK4(Kin.Dom.2-C-terminal)", "category": 1.0}

Now turn to the next compound.
Task: Hi team, for Fc1cccc(COc2ccc(Nc3ncnc4sc(-c5ccc[nH]5)cc34)cc2Cl)c1 , is the recorded %Inh at or above 20%?
Result: 0.0

---

System: PLK1
condition: concentration: 1 μM, replicates: in singlicate; n = 1
// %Inh lookup, one value per entry
Field: numeric (%). Do not append units.

Below, 3 molecules whose answers are already recorded.
{"molecule": "Cn1ccc2ncnc(Nc3ccc(Oc4cccc(Cl)c4)c(Cl)c3)c21", "quantity unit": "%", "data value": 0}
{"molecule": "Cl.c1ccc(Cn2ccc3cc(Nc4ncnc5ccccc45)ccc32)cc1", "quantity unit": "%", "data value": 4}
{"molecule": "C[C@H]1CC[C@@H](C(=O)Nc2ccccc2)CN1c1cc(-c2ccc3c(N)n[nH]c3c2)nc(N)n1", "quantity unit": "%", "data value": 0}

Task: Report %Inh for Nc1nc(-c2ccc3c(N)n[nH]c3c2)cc(N2CCCCC2)n1 please.
Result: 0

---

// %Inh lookup, one value per entry
System: PKAC-alpha
Construct: gene PRKACA
condition: concentration: 1 μM, replicates: in singlicate; n = 1
Field: numeric (%). Do not append units.

{"compound": "Cc1ccc(NC(=O)c2cccc(C#N)c2)cc1-c1ccc(C(=O)Nc2ccncc2)cc1", "assayed system": "PKAC-alpha", "readout kind": "%Inh", "quantity unit": "%", "data value": 0}

Task: Report %Inh for COc1ccc(-c2oc3ncnc(N)c3c2-c2ccc(OC)cc2)cc1 please.
Result: 0

Task: Next entry: O=C(CCO)NCCn1ccc2ncnc(Nc3ccc(Oc4cccc(C(F)(F)F)c4)c(Cl)c3)c21
Result: 0

Task: Next entry: CCn1c(-c2ccncc2)nc2cnccc21
Result: 0

Task: Next entry: CN1CCC(n2cnc(-c3ccc(F)cc3)c2-c2ccnc(NC3CCNCC3)n2)CC1
Result: 0

Task: Next entry: O=C(NCCCN1CCCC1=O)c1cnc(NCc2cc(Cl)ccc2Cl)nc1NC1CCNCC1
Result: 0

Task: Next entry: Cl.Fc1ccccc1COc1ccc(Nc2ncnc3ccc(-c4nnc(C(F)(F)F)o4)cc23)cc1Cl
Result: 0

Task: Next entry: CCCc1ccc(S(=O)(=O)NC2CCN(c3ccnc(Nc4ccc(OC)cc4)n3)C2)cc1 (stereo not drawn)
Result: 0

Task: Next entry: Cc1ccc(C)c(NC(=O)NCCNc2ccnc(Nc3ccc(F)cc3)n2)c1
Result: 0

Task: Next entry: Cl.c1ccc(Cn2ccc3cc(Nc4ncnc5ccccc45)ccc32)cc1
Result: 18

Task: Next entry: Clc1cc(Nc2ncnc3cc[nH]c23)ccc1OCc1ccccn1
Result: 23

Task: Next entry: Fc1cccc(COc2ccc(Nc3ncnc4nn5ccccc5c34)cc2Cl)c1
Result: 0

Task: Next entry: CCC(CC)(CC)n1cnc2c(N)ncnc21
Result: 11

Task: Next entry: CCc1nc(-c2cccc(C)c2)c(-c2ccnc(NC(=O)c3ccccc3)c2)s1
Result: 0

Task: Next entry: Nc1nccc2scc(-c3ccc4c(c3)CCN4C(=O)Cc3cc(F)ccc3F)c12
Result: 0

Task: Next entry: CNc1nccc(-c2c(-c3ccc(F)cc3)ncn2C2CCN(C)CC2)n1
Result: 1

Task: Next entry: CC(C)(C)OC(=O)NC1CCCN(c2cc(-c3ccc4c(N)n[nH]c4c3)nc(N)n2)C1 (stereo not drawn)
Result: 0

Task: Next entry: Nc1nc(-c2ccc3c(N)n[nH]c3c2)cc(N2CCC[C@@H](C(=O)Nc3ccccc3)C2)n1.O=C(O)C(F)(F)F.O=C(O)C(F)(F)F
Result: 14

The measured values listed here are drawn from paper PMC5540273.
